Value source: patent US4515806A

# subject_of_test: histamine H2 receptors (Rattus norvegicus, UniProt P25102)
# Construct: the uterine horn was removed and suspended in a De Jalon solution in an organ bath; from tissue; host or cells: rat uterine horn (rats in estrus, stilbestrol-treated)
# Sequence (P25102 whole entry): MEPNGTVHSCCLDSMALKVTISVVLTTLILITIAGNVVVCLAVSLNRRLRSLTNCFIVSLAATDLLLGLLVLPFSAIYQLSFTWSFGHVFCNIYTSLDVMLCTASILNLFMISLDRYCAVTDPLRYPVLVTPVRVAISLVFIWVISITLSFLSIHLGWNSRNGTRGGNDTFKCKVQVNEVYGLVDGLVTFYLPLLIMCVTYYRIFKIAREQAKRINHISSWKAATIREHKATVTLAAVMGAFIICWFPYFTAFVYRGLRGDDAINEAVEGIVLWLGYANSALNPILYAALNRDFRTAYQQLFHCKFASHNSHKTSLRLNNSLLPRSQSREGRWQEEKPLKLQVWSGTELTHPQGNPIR
# details: rat uterus, KCl contracted; read-out: effective concentration for producing a 50% antagonism of the histamine response (EC50)
observable: pEC50
Scale: negative log10 of molar concentration, which is what pEC50 denotes.

Missing value: pEC50, histamine H2 receptors (Rattus norvegicus, UniProt P25102), entry CNC(=C[N+](=O)[O-])NCCSCc1ccc(CN(C)C)o1 . Fill in?
5.08

* * *

# subject_of_test: histamine H2 receptors (Rattus norvegicus, UniProt P25102)
# Construct: the uterine horn was removed and suspended in a De Jalon solution in an organ bath; from tissue; host or cells: rat uterine horn (rats in estrus, stilbestrol-treated)
# details: read-out: effective concentration for producing a 50% antagonism of the histamine response (EC50)
observable: pEC50
Scale: negative log10 of molar concentration, which is what pEC50 denotes.

Query (compound): CN(C)Cc1ccc(CSCCNC(=C[N+](=O)[O-])NCCO)o1.Cl [Example 1, (b), hydrochloride] ; field requested: pEC50
5.26

* * *

# test_details: in vivo
# details: mouse, iv
observable: LD50 (mg/kg)
# number only, unit mg/kg dropped from output

Query (molecule): CN(C)Cc1ccc(CSCCNC(=C[N+](=O)[O-])NCCO)o1.Cl ; field requested: LD50
200
